- Tested on: SNB-19 CNS
- ASSAY METHOD TEXT: NCI tumour cell line growth inhibition, 48 h
MEASUREMENT NAME: TGI

| COMPOUND | MEASURED ON | MEASUREMENT NAME | OBSERVED RESULT |
| --- | --- | --- | --- |
| C#CCn1cc(C=C2C(=O)NC(=S)NC2=O)c2cc(Cl)ccc21 | SNB-19 CNS | TGI | 3.16 µM |
| NCCn1c2c(c3ccccc3c1=O)C(=O)c1ccccc1-2 | SNB-19 CNS | TGI | 2.09 µM |
| Cc1cc(Nc2cc(N3CCN(C)CC3)nc(C#Cc3ccccc3)n2)n[nH]1 | SNB-19 CNS | TGI | 19.5 µM |
| CC(=O)OC1Oc2cc(C)c(C)cc2-c2oc(=O)c(-c3ccccc3)cc21 (configuration not stated) | SNB-19 CNS | TGI | 28.7 µM |
| C=CCN(N=O)C(=O)ON1C(=O)CCC1=O | SNB-19 CNS | TGI | > 100 µM |
| O=c1[nH]nc(-c2ccc([N+](=O)[O-])cc2)[nH]1 | SNB-19 CNS | TGI | > 100 µM |
| C1=CC=C2NCCSCCNC3=CC=CC=CC3=NCCSCCN=C2C=C1 | SNB-19 CNS | TGI | > 100 µM |
| O=c1ncccn1C1OC(CO)C(O)C1F (configuration not stated) | SNB-19 CNS | TGI | > 100 µM |
| O=c1c2ccccc2c(=O)c2c1sc1c(=O)c3ccc(O)cc3c(=O)c12 | SNB-19 CNS | TGI | 1.24 µM |
| COc1ccccc1Cn1c2c(c3cc(O)ccc31)C(=O)c1ccccc1C2=O | SNB-19 CNS | TGI | > 100 µM |
| CC(=O)OC1COC(N2c3ccccc3[C@@H]3CCc4c([nH]c5ccccc45)[C@@H]32)C(OC(C)=O)C1OC(C)=O (mixture of isomers) | SNB-19 CNS | TGI | > 100 µM |
| COc1cc2c3c(c1OC)/C(=N/OS(=O)(=O)c1ccc(C)cc1)CC3N(S(=O)(=O)c1ccc(C)cc1)CC2 (configuration not stated) | SNB-19 CNS | TGI | > 100 µM |

---

- Test system: HCC-2998 colon
- ASSAY METHOD TEXT: NCI tumour cell line growth inhibition, 48 h

| COMPOUND | TGI |
| --- | --- |
| NCCNc1nc2ccccc2c2c(=O)c3cc(F)cc(Cl)c3sc12 | 3.45 µM |
| CN1C(=O)CC2(C)c3cc(C=O)ccc3N(C)C12 (stereo not given) | > 100 µM |
| N#CC1=C(N)Oc2c(sc3c(Br)cccc23)C1c1ccc(F)cc1 (stereo not given) | 10.1 µM |
| CC(=O)[O-].O=[N+]([O-])c1ccc([O-])c(C=NCCN=Cc2cc([N+](=O)[O-])ccc2[O-])c1.[Mn+3] | > 100 µM |
| COc1ccc(-c2nn(-c3cccc(Cl)c3)cc2/C=C2\C(=N)N(c3ccccc3)N=C2N)cc1 | 4.42 µM |
| O=C1c2cc3c(cc2-c2c1c1cc(F)c(F)cc1c(=O)n2C[C@H](O)CO)OCO3 | 11.2 µM |
| O=C1Nc2ccc(Br)cc2C1=Nc1ccc(Cl)cc1 | 39.7 µM |
| O=C(Nc1nc2ccc(F)cc2s1)c1cccnc1Nc1ccc(Cl)cc1Cl | 18.3 µM |
| CCOC(=O)c1c(-c2ccc(OC)cc2)c(C#N)c(=S)n(C2OC(CO)C(O)C(O)C2O)c1C (stereo not given) | > 100 µM |
| Cc1ccc2nc(Nc3ccccc3C)c(Nc3ccccc3C)nc2c1 | 61.3 µM |
| CC1CCc2sc3[nH]c(=S)n(C)c(=O)c3c2C1 (stereo not given) | 82.5 µM |
| COc1ccc(-c2conc2-c2ccccc2)cc1 | 14.7 µM |
| CN(C)C(=O)/N=C1\SC(=Nc2ccccc2)C(=Nc2ccccc2)N1c1ccc([N+](=O)[O-])cc1 | > 100 µM |
| CC(=O)OC1COC(N2c3ccccc3[C@@H]3CCc4c([nH]c5ccccc45)[C@@H]32)C(OC(C)=O)C1OC(C)=O (mixture of isomers) | > 100 µM |
| C1=CC=C2NCCSCCNC3=CC=CC=CC3=NCCSCCN=C2C=C1 | > 100 µM |
| Cc1cc2c(-c3nc4ccccn4c3NC34CC5CC(CC(C5)C3)C4)c(O)c(O)cc2c(O)c1-c1c(C)cc2c(-c3nc4ccccn4c3NC34CC5CC(CC(C5)C3)C4)c(O)c(O)cc2c1O | > 25 µM |
| COC(=O)[C@@H]1[C@H]2CC[C@]3(C)[C@@H](OC(C)=O)CC[C@H]3[C@@H]2CC[C@H]1C1(C)SCCS1 | 86.2 µM |
| O=C1[C@H]2ON(c3ccccc3)C(c3cccc([N+](=O)[O-])c3)[C@H]2C(=O)N1c1ccc(Cc2ccc(N3C(=O)[C@@H]4ON(c5ccccc5)C(c5cccc([N+](=O)[O-])c5)[C@@H]4C3=O)cc2)cc1 (stereo not given in full) | > 100 µM |
| CCOc1cccc(/C=N/NC(=O)Cc2ccc(Nc3ccnc(C(F)(F)F)c3)cc2)c1O | 93.4 µM |
| COc1ccc(-c2nn3ncccc3c2-c2ccnc(Nc3cccc(C(F)(F)F)c3)n2)cc1 | 18.6 µM |
| CC(C)(C)[Si](C)(C)OC1CCOC1(O)c1ccccn1 (stereo not given) | > 100 µM |
| CCOP(=O)(CC1OC(CO)C(O)C1O)OCC (stereo not given) | > 100 µM |
| CCOc1ccccc1NC(=O)CCC(=O)NN | > 100 µM |
| C#CCn1cc(C=C2C(=O)NC(=S)NC2=O)c2cc(Cl)ccc21 | 3.39 µM |
| CN1C2CCC1C(CO)C(=O)C2 (stereo not given) | > 100 µM |
| O=C(O)CCSc1ncnc2nc[nH]c12 | > 100 µM |
| O=C(O)C(Cc1c[nH]c2ccccc12)N1C(=O)c2ccccc2C1=O (stereo not given) | > 100 µM |
| COc1ccc(C(=C2C(=O)OC(=O)C2=C(C)C)c2ccc(OC)cc2)cc1 | > 100 µM |
| Oc1ccc(C[C@@H]2CN[C@H](Cc3ccc(O)c(Br)c3)CN2)cc1 | > 100 µM |
| Cc1cc(C(=O)Nc2cc(Nc3ncccc3-c3ncnc4nc[nH]c34)ccc2F)cc(C(C)(C)C#N)c1 | > 78.9 µM |
| Cc1cc([C@H](C)Nc2nccc(N3C(=O)OC[C@@H]3[C@H](C)F)n2)ncc1-c1ccnc(C(F)(F)F)c1 | > 100 µM |
| O=C(/C=C/CC(O)(c1ccccc1)c1ccccc1)Nc1ccccc1Cl | > 100 µM |
| O=C(/C(=N/Nc1cn[nH]c(=O)c1Cl)c1ccccc1)c1ccccc1 | 76.7 µM |
| Cc1nc2cc(Nc3nc(Nc4ccc(F)cc4)nc(-c4ccc(Cl)cc4)n3)ccc2n1Cc1ccccc1 | > 100 µM |
| C[C@@](Br)(C(=O)O)[C@H](Br)C(=O)O | > 100 µM |
| CCOC(=O)OC1(c2ccccc2)CCN(C)CC1 | > 100 µM |
| O=C1CCC(CCc2nc3ccccc3[nH]2)(c2ccccc2)C(=O)N1 (stereo not given) | > 100 µM |
| CCOC(=O)C(=Cc1c(-c2ccccc2)[nH]c2ccccc12)C(=O)OCC | 22.6 µM |
| O=c1ncccn1C1OC(CO)C(O)C1F (stereo not given) | > 100 µM |
| COc1ccc(-c2cn(-c3cc(OC)c(OC)c(OC)c3)c(=O)n2-c2ccccc2)cc1 | > 100 µM |

---

- Tested on: UACC-62 melanoma
- ASSAY METHOD TEXT: NCI tumour cell line growth inhibition, 48 h
The entries below come with measured TGI values attached.

| COMPOUND | RESULT OPERATOR | TGI [µM] |
| --- | --- | --- |
| COc1ccc(C(=O)/C=C/c2ccc(OCCCCCCCCCCOc3ccc(/C=C/C(=O)c4ccc(OC)c(OC)c4)cc3)cc2)c(OC)c1 | > | 100 |
| C=C1C[C@@H]2CC[C@@]34CC5O[C@H]6C(O[C@H]7CC[C@H](CC(=O)O[C@@H]8[C@@H](C)[C@@H]9O[C@@H]%10C[C@]%11(C[C@@H]%12O[C@]%13(C[C@H](C)[C@@H]%14O[C@@H]%15CC(C(COC(C)=O)OC(C)=O)O[C@@H]%15C[C@@H]%14O%13)C[C@H](C)[C@@H]%12O%11)O[C@@H]%10C[C@@H]9O[C@H]8CC8O[C@@H](CC[C@@H]1O2)C[C@@H](C)C8(O)CO)O[C@@H]7[C@@H]6O3)[C@H]5O4 (stereo partly specified) | > | 1 |
| Nn1nnc2ccccc21 | > | 100 |
| CN1CCN(CCCOc2ccc3ncnc(Nc4ccc(Oc5cccc(F)c5)c(Cl)c4)c3c2)CC1 | = | 3.27 |
| Cc1cc(Nc2cc(N3CCN(C)CC3)nc(C#Cc3ccccc3)n2)n[nH]1 | = | 15.1 |
| CC(=O)c1c(Nc2ccc(F)c(F)c2F)[nH]c2c(F)cc(F)cc2c1=O | = | 0.836 |
